Biological target: T1, hANGPTL3(17-169)-mFc (human)
T1 construct: also called N-terminal coiled-coil domain of hANGPTL3 with a C-terminal mouse Fc fusion
T1 chain: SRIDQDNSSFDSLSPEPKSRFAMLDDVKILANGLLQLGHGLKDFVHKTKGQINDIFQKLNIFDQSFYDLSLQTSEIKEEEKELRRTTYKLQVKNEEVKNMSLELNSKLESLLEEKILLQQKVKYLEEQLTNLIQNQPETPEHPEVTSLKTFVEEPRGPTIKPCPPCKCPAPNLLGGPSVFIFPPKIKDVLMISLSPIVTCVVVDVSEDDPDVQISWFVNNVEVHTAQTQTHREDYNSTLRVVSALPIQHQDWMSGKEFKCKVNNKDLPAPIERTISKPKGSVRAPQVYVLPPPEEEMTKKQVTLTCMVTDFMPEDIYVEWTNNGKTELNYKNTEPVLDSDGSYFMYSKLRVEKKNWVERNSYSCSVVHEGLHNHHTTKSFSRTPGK
Test: SPR Biacore, antigen captured, 25C, pH 7.4, HBS-EP
measuredParameter: kon (M⁻¹ s⁻¹)
Dear colleague, please return just the value in M⁻¹ s⁻¹, with no unit written.

Lab book: kon of H4H1250P (antibody, IgG4, V domains shown) VH: QVQLVESGGGVVQPGRSLRLSCAASGFTFSSYGMHWVRQAPGKGLEWVAVISNDGSNKYYVDSVKGRFTMGRDNSKNTLYLQMNSLRVEDTAVYYCAKGAGTLYYYYYGMDVWGQGTTVTVSS VL: DIQMTQSPSTLSASVGNRVTITCRASQSISSWLAWYQQKPGKAPKFLIYKASSLESGVPSRFSGSGSGTEFTLTITSLQPDDFATYYCQQYNIYSWTFGQGTKVEIK noted as 1.25e+06
